// provenance: patent US20100016598A1

- TEST SYSTEM: alpha3 (ganglionic) nACh receptors (Homo sapiens, UniProt P30926+P32297)
- Construct: using the native SH-SY5Y cell line; endogenous in cells
- Sequence (P32297 32-505): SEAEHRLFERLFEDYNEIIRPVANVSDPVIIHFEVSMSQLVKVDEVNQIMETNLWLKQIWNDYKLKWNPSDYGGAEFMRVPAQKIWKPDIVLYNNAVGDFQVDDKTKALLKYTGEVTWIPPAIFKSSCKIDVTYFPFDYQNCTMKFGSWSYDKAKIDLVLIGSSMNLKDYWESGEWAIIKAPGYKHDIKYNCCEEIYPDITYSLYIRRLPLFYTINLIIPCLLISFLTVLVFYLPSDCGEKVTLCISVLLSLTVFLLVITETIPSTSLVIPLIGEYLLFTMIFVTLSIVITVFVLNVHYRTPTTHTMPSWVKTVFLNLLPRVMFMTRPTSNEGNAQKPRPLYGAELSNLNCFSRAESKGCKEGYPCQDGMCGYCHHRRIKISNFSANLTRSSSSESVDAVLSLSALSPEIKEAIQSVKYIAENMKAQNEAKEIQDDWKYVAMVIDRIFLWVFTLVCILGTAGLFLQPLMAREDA
- Sequence (P30926 22-498): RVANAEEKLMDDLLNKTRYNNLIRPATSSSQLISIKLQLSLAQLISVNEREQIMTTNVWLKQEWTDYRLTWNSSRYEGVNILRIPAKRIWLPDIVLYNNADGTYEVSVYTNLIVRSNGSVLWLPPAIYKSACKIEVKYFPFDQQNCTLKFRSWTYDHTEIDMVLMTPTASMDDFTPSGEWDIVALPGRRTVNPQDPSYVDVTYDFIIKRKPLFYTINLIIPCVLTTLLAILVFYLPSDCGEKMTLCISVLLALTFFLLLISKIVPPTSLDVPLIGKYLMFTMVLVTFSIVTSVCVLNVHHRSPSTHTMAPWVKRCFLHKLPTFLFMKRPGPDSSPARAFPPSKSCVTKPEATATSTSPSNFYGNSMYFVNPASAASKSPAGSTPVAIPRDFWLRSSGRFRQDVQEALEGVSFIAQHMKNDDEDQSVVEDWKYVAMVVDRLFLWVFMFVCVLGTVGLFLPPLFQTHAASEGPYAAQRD
- ASSAY NOTES: calcium-monitoring FLIPR selectivity assay using the native SH-SY5Y cell line
- STUDY CONDITIONS: read-out: Alpha 3 EC50
VALUE TYPE: EC50
Put down the number, then write its unit next to it.

Query :: Need EC50 of "COc1ncccc1-c1ccc(NC(=O)NCCCCN2CCCCC2)cc1" , thanks.
Result :: 5.67 µM
